The entries below are paired with their reported logD hydrocarbon water.
Experiment: Decadiene/water partition coefficient, logD of compound at pH 7.4 by HPLC analysis
Format: physicochemical
Where a SMILES comes first, the peptide text is derived from it. [ ]: non-standard residue; d: D form. NMeF = CN[C@@H](Cc1ccccc1)C(=O)O; NMeA = CN[C@@H](C)C(=O)O; dNMeA = CN[C@H](C)C(=O)O; Sar = CNCC(=O)O
Answer field: number only, no words.

Solved cases below.
- compound: "CC(C)C[C@@H]1NC(=O)[C@H]([C@@H](C)O)N(C)C(=O)[C@H]2CCCN2C(=O)[C@H](CC(C)C)NC(=O)[C@H]([C@@H](C)O)N(C)C(=O)[C@H](CC(C)C)NC(=O)[C@H]([C@@H](C)O)N(C)C(=O)[C@H]2CCCN2C(=O)[C@H](CC(C)C)NC(=O)[C@H]([C@@H](C)O)N(C)C1=O"
  logD hydrocarbon water: -0.8
- compound: "CC(C)C[C@@H]1NC(=O)[C@H](C)N(C)C(=O)[C@H](CC(C)C)NC(=O)[C@@H]2CCCN2C(=O)CN(C)C(=O)[C@H](CC(C)C)NC(=O)[C@H](C)N(C)C(=O)[C@H](CC(C)C)NC(=O)[C@@H]2CCCN2C(=O)CN(C)C1=O (cyclo(L[NMeA]L[Sar]PL[NMeA]L[Sar]P))"
  logD hydrocarbon water: 0.3
- compound: "CC(C)C[C@@H]1NC(=O)[C@H](C(C)C)N(C)C(=O)[C@H]2CCCN2C(=O)[C@H](CC(C)C)NC(=O)[C@@H](C)N(C)C(=O)[C@H](CC(C)C)NC(=O)[C@H](C(C)C)N(C)C(=O)[C@H](C)N(C)C(=O)[C@H](CC(C)C)NC(=O)[C@@H](C)N(C)C1=O"
  logD hydrocarbon water: 4
- compound: "CC(C)C[C@@H]1NC(=O)[C@H](C)N(C)C(=O)[C@H](CC(C)C)NC(=O)[C@H](Cc2ccccc2)N(C)C(=O)[C@@H](C)N(C)C(=O)[C@H](CC(C)C)NC(=O)[C@H](C)N(C)C(=O)[C@H](CC(C)C)NC(=O)[C@H](Cc2ccccc2)N(C)C(=O)[C@@H](C)N(C)C1=O (cyclo(L[NMeA]L[dNMeA][NMeF]L[NMeA]L[dNMeA][NMeF]))"
  logD hydrocarbon water: 5.1
- compound: "CC(C)C[C@@H]1NC(=O)[C@H](C)N(C)C(=O)[C@H]2CCCN2C(=O)[C@H](CC(C)C)NC(=O)[C@H](C)N(C)C(=O)[C@H](CC(C)C)NC(=O)[C@H]([C@@H](C)O)N(C)C(=O)[C@H]2CCCN2C(=O)[C@H](CC(C)C)NC(=O)[C@H]([C@@H](C)O)N(C)C1=O"
  logD hydrocarbon water: 1.2
- compound: "CC(C)C[C@@H]1NC(=O)[C@H](C)N(C)C(=O)[C@H]2CCCN2C(=O)[C@H](CC(C)C)NC(=O)[C@H](C)N(C)C(=O)[C@H](CC(C)C)NC(=O)[C@H](C)N(C)C(=O)[C@H]2CCCN2C(=O)[C@H](CC(C)C)NC(=O)[C@H]([C@@H](C)O)N(C)C1=O"
  logD hydrocarbon water: 1.7

## Input Which logD hydrocarbon water is listed for "CC(C)C[C@@H]1NC(=O)[C@H]([C@@H](C)O)N(C)C(=O)[C@H]2CCCN2C(=O)[C@H](CC(C)C)NC(=O)[C@H]([C@@H](C)O)N(C)C(=O)[C@H](CC(C)C)NC(=O)[C@H](C)N(C)C(=O)[C@H]2CCCN2C(=O)[C@H](CC(C)C)NC(=O)[C@H]([C@@H](C)O)N(C)C1=O" ?
## Output 0.4

## Input Which logD hydrocarbon water is listed for "CC(C)C[C@@H]1NC(=O)[C@H](Cc2ccccc2)N(C)C(=O)[C@H]2CCCN2C(=O)[C@H](CC(C)C)NC(=O)[C@H](C)N(C)C(=O)[C@H](CC(C)C)NC(=O)[C@H](Cc2ccccc2)N(C)C(=O)[C@H]2CCCN2C(=O)[C@H]([C@@H](C)O)NC(=O)[C@H](C)N(C)C1=O" ?
## Output 3.6
